Please respond with reported HT29 IL-8 release, IC50 for every item in the list.
study-target: T1, recombinant human LIGHT-214E, FLAG-tagged extracellular domain (human)
T1 chain: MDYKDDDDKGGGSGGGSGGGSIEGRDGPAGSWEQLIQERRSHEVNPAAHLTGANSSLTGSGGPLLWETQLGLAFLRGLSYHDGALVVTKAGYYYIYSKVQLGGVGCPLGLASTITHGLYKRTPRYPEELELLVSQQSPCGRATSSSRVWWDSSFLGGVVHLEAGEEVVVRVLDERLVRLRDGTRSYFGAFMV
measurement-description: cell-based or functional assay
Give bare numbers, in nM.

Recorded HT29 IL-8 release, IC50, per entry:
1) 42A02 (purified from hybridoma supernatant) (antibody, V domains shown, Murine constant / human variable chimeric IgG, lambda, Protein G purified from hybridoma supernatant) VH: EVQLVESGGGLVQPGGSLRLSCAASGFTFSSYVMSWVRQAPGKGLEWVSVISSSGVTTYYADSVKGRFTISRDNSKNTLYLQMNSLRAEETAVYYCAKGNYGSGSFCDYWGQGTPVTVSS VL: SYVLTQPPSVSVAPGKTARITCGGNNIGSKSVHWYQQRPGQAPILVIYYDSDRPSGIPERFSGSNSGNSATLTISRVEAGDEADYHCQVWESSSDHPVFGGGTKLTVL | 0.917
2) 13H04 (purified from hybridoma supernatant) (antibody, V domains shown, Murine constant / human variable chimeric IgG, lambda, Protein G purified from hybridoma supernatant) VH: QVQLVQSGAEVKKPGASVKVSCKASGYTFTSYGISWVRQAPGQGLEWMGWISAHNANTNYAQKLQGRVTMTTDTSTSTAYMELRSLRSDDTAMYYCARLYRNWFDPWGQGTLVTVSS VL: QSALTQPASVSGSPGQSITISCTGTSSDVGGYNYVSWYQQHPGKAPKLMIYDVSKRPSGVSNRFSGSKSGNTASLTISGLQAEDEADYYCCSYAGSSTLLFGGGTKLTVL | 1.33
3) 31A10 (purified from hybridoma supernatant) (antibody, V domains shown, Murine constant / human variable chimeric IgG, kappa, Protein G purified from hybridoma supernatant) VH: QVQLQESGPGLVKPSGTLSLTCAVSGGSISSINWWNWVRQPPGKGLEWIGEVSHSGITNYNPSLKSRVTMSVDKAKNQFSLKLNSVTAADTAVYYCARERAVADYHGMDVWGQGTTVTVSS VL: AIQLTQSPSSLSASVGDRVTITCRASQGISSALAWFQQKPGKPPKLLIFDASDLESGVSSRFSGSGSGTDFTLTISSLQPGDFATYYCQQFNSYPITFGQGTRLEIK | 0.217

Continue with the next binder.
Need HT29 IL-8 release, IC50 of 14B09 (purified from hybridoma supernatant) (antibody, V domains shown, Murine constant / human variable chimeric IgG, lambda, Protein G purified from hybridoma supernatant) VH: QVQLVQSGAEVKKPGASVKVSCRASGYTFTSYLMHWVRQAPGQRLEWMGWINVGNGNTKYSQKFQGRVTITRDTSASTAYMELSGLRSEDTAVYYCARNYYNWFDPWGQGTLVTVSS VL: QSALTQPASVSGSPGQSITISCTGTSSDVGGYNYVSWYQQHPGKAPKLMIYDVSKRPSGVSNRFSGSKSGNTASLTISGLQAEDEADYYCFSYAGSSTVVFGGGTKLTVL , thanks.
1.31
